This listing pairs compounds with measured DC50.
SUBJECT_OF_TEST: BCL-XL (Homo sapiens)
Construct: endogenous in cells; host or cells: MOLT-4
Sequence (Q07817 whole entry): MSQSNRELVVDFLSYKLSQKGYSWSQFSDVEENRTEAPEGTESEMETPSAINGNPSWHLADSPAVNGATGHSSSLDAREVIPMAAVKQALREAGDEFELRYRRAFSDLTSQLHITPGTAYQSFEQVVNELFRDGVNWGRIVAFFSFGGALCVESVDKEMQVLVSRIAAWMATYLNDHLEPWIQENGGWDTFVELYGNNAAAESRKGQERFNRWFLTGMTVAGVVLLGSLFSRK
EXPERIMENT_SUMMARY: BCL-XL degradation assay, western blot in MOLT-4 cells, 16 h
Assay type: cell-based
MEASUREMENT_SETUP: western blot, MOLT-4 cells, 16 h; read-out: Bcl-xL WB in MOLT-4 degradation 16 h: Mean external-Abs DC50

Cc1ncsc1-c1ccc([C@H](C)NC(=O)[C@@H]2C[C@@H](O)CN2C(=O)[C@@H](NC(=O)CCCCCCCC(=O)NCCOc2ccc(C(=O)Nc3nc4ccccc4s3)c3c2CCN(c2ccc(-c4cnn(CC5CCCCC5)c4C)c(C(=O)O)n2)C3)C(C)(C)C)cc1 :: 10 to 100 nM
C#Cc1ccc([C@H](CO)NC(=O)[C@@H]2C[C@@H](O)CN2C(=O)[C@@H](NC(=O)CCc2ccc(S(=O)(=O)NC(=O)c3nc(N(C)c4cc(C)c(Nc5nc6ccccc6s5)nn4)ccc3-c3cnn(CC4CCCCC4)c3C)cc2)C(C)(C)C)cc1 :: 10 to 100 nM
Cc1ncsc1-c1ccc([C@H](CC(=O)N(C)CCCC(=O)N2CCN(CC[C@H](CSc3ccccc3)Nc3ccc(S(=O)(=O)NC(=O)c4ccc(N5CCN(CC6=C(c7ccc(Cl)cc7)CCC(C)(C)C6)CC5)cc4)cc3S(=O)(=O)C(F)(F)F)CC2)NC(=O)[C@@H]2C[C@@H](O)CN2C(=O)[C@@H](NC(=O)C2(F)CC2)C(C)(C)C)cc1 :: > 1000 nM

Now examine the next entry.
Lookup: Sample Cc1ncsc1-c1ccc([C@H](C)NC(=O)[C@@H]2C[C@@H](O)CN2C(=O)[C@@H](NC(=O)CCCCCCCS(=O)(=O)NC(=O)c2nc(N3CCc4cccc(C(=O)Nc5nc6cccnc6s5)c4C3)ccc2-c2cnn(CC34CC5CC(CC(C5)C3)C4)c2C)C(C)(C)C)cc1 — what was its DC50?
Found: < 10 nM
